I'd be grateful if you could share measured z-score for these entries.
assay: HepG2 cell viability effects, profiling panel, calcein-AM fluorescence, 48 h, basal (AID 1164); details: higher = more signal; note: test concentration not given here
Please reply with the value in numeric form only.

Exercise: Query: z-score; subject: "CC(C)(C)OC(=O)CC[C@]1(C(=O)N2CCOCC2)N=C(c2ccc(OCCCO)cc2)O[C@H]1c1ccccc1CN=[N+]=[N-]"
Key: 0.209

Exercise: # get_value(readout='z-score', item= CC(=O)c1ccc(C(O)C2C=CC3C(=O)N(C)C(=O)C3N2NC(=O)OC(C)(C)C)cc1 (stereo unspecified) )
Key: -0.831

Exercise: Find the recorded z-score belonging to "COc1ccc([Si](C)(C)[C@H]2[C@H](CC(=O)N3Cc4ccccc4C[C@H]3CO)O[C@@]3(C(=O)N(Cc4cccc(N5C(=O)c6cccc7cccc5c67)c4)c4ccccc43)[C@@H]2C)cc1" and report it.
Key: -0.475

Exercise: z-score lookup needed for "C=CCN1C(=O)[C@]2(O[C@H](CCn3cc([C@H](O)c4ccccc4)nn3)[C@@H]([Si](C)(C)c3ccc(OC)cc3)[C@@H]2C)c2cc(N3C(=O)c4cccc5cccc3c45)ccc21" , thanks.
Key: -3.33

Exercise: Need z-score of "C/C=C/CN(C(=O)C#Cc1ccccc1)[C@H](CO[Si](C)(C)C(C)(C)C)c1ccccc1" , thanks.
Key: -0.488

Exercise: Entry under review: "COCCOC(=O)N1C(=O)[C@@]2(c3cc(C#CC4(O)CCCCCC4)ccc31)[C@H](c1ccc(OCCO)cc1)N1[C@H](c3ccccc3)[C@H](c3ccccc3)OC(=O)[C@H]1[C@@H]2C(N)=O" . Reported z-score?
Key: -1.52

====

test: E. coli growth modulation, two-sided OD650, primary screen, E. coli filamentation project, strain DRC41, 24 h (AID 1093); settings: OD650, 24 h, higher = more signal, called active from +8 up or from −8 down;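 note: MC1000 strain lacking acrAB efflux and sulA so SOS filamentation is blocked; test concentration not given here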
parameter: z-score
Just the number, please, no unit attached.

Exercise: Dear colleague, I am looking for the recorded z-score of the following compound: "CCCCC(=C=CC[C@@H](O)c1ccc(OCCO)cc1)C[C@@H](O)c1ccccn1"
Key: 0.774

Exercise: # lookup: z-score of "CCCCC=C[C@@H](NC(=O)c1ccc(C(F)(F)F)cc1)c1ccccc1"
Key: -1.07

Exercise: I would be grateful if you could share the reported z-score for "COc1ccccc1CN1C(=O)c2ccccc2[C@](Cc2ccccc2I)(C(=O)NCCCN(C)C)[C@@H]1c1ccc(CO)cc1" .
Key: -5.17

Exercise: Using the record for "CCOC(=O)C[C@H]1[C@H](OC(=O)c2cc3ccccc3oc2=O)[C@@H](NC(=O)C2CCCCC2)c2cc(OCCCO)ccc2N1C(=O)Cc1ccc(OC)cc1" , report its z-score.
Key: -0.723

Exercise: // z-score lookup, key: "COC(=O)Cn1c(C(=O)N(C)C)cc2c1C[C@H]1CN(C(=O)c3ccccc3)[C@@](Cc3ccc(OC)cc3)(C(=O)OC)[C@@H]21"
Key: -0.692

Exercise: Form field: reported z-score of "CN(C)C(=O)[C@@]1(CCS(=O)(=O)c2ccccc2)N=C(c2ccc(OCCCO)cc2)O[C@H]1c1ccccc1N=[N+]=[N-]"
Key: 0.635

Exercise: Using the record for C=CCC(OC(C)=O)[C@@H]1[C@@H](N(Cc2ccc(-c3cccc(C(F)(F)F)c3)o2)C(=O)c2cccc3ccccc23)c2cc(OCCCO)ccc2N1C(=O)c1ccc2ccccc2n1 (some centres undefined) , report its z-score.
Key: -0.746

Exercise: What value of z-score has been recorded for this entry: "C[C@]1(C(=O)NCC(F)(F)F)c2ccccc2C(=O)N(Cc2ccc(OC(F)(F)F)cc2)[C@H]1c1ccc(CO)cc1"
Key: -0.975

Exercise: Would you mind telling me what z-score value was observed for "[N-]=[N+]=NCc1ccccc1C[C@]1(C(=O)N2CCOCC2)N=C(c2ccc(OCCCO)cc2)O[C@H]1c1ccccc1CN=[N+]=[N-]" ?
Key: 0.27

Exercise: Entry under review: "CC(C)CNC(=O)[C@@H]1c2ccccc2C(=O)N(CC23CC4CC(CC(C4)C2)C3)[C@H]1c1ccc(CO)cc1" . Reported z-score?
Key: -0.109

Exercise: Which z-score value is on record for "COC(=O)C(CC#Cc1ccc2c(c1)[C@]1(C(=O)N2)[C@H](c2ccc(O)cc2)N2[C@H](c3ccccc3)[C@H](c3ccccc3)OC(=O)[C@H]2[C@@H]1C(=O)N1CCc2cc(OC)c(OC)cc2C1)C(=O)OC" ?
Key: -0.829

Exercise: z-score lookup needed for "CN(C)CCCC[C@@H]1NC(=O)[C@@H]2C[C@H](C(=O)NCc3ccc(F)cc3)[C@H](c3ccc(O)cc3)N2C1=O" , thanks.
Key: -0.585

Exercise: What does the data say about its z-score? Entry: "C[N+](C)(C)CCCCCCNC(=O)[C@H]1C[C@H]2C(=O)NCC(=O)N2[C@H]1c1cccc(OCCO)c1"
Key: -0.329

Exercise: May I ask what z-score has been recorded for "CC(C)C[C@@H]1NC(=O)[C@@H]2C[C@H](C(=O)NCCCC[N+](C)(C)C)[C@H](c3ccc(O)cc3)N2C1=O" ?
Key: 0.0731

====

assay: P. aeruginosa biofilm formation inhibitors, primary screen, strain PAO1, LB-PBS medium, absorbance 600 nm (AID 1176); note: test concentration not given here; details: P. aeruginosa PAO1 growth/biofilm, A600, 12 h; higher = more signal
Calls of active or inactive are those of the source. No rule for the calls is given here.
parameter: z-score

Exercise: Request the reported z-score associated with "C=C(/C(=C/C[C@@H](OC(C)=O)c1ccccc1OCCO)c1cc(C(=O)OC)ccc1OC)C(C)C"
Key: 0.0478 (inactive)

Exercise: Dear colleague, I am looking for the recorded z-score of the following compound: CCCCN1CC=CC23O[C@@H]4C=CCOC(=O)[C@@H]4[C@H]2C(=O)N(C(CO)C(C)C)[C@@H]3C1=O (some centres undefined)
Key: 0.0405 (inactive)

Exercise: # input compound: "Cc1ccc(S[C@]2(C(=O)NCC(F)(F)F)CC(=O)N(C3CCCCC3)[C@@H]2c2ccc(CO)cc2)cc1" ; wanted: its z-score
Key: 0.0309 (inactive)

Exercise: Fill in: z-score of "CCC[C@@H]1[C@@H](Sc2ccccc2)[C@@H](C(=O)O)[C@H](c2ccc(C)cc2)N1S(=O)(=O)c1ccc(C)cc1" is ___
Key: 0.257 (inactive)

====

test: small-molecule microarray binders of probe aXIP, primary screen, biochemical, NeuroSMM set, 635/667 nm fluorescence (AID 1119); conditions: higher = more signal, called active from +8 up or from −8 down;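 note: probe is the protein aXip251-270 applied at 1 µg/mL to compound-printed slides; binding of probe to printed compounds measured as 667 nm fluorescence plus signal to noise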
Lab note: compare composite Z-score against 0.02. Equal or greater, write Fulfilled. Smaller, write Not fulfilled.

Exercise: # bool: composite Z-score of "COCCOC(=O)N1C(=O)[C@@]2(c3cc(C#CC4(O)CCCCCC4)ccc31)[C@H](C(=O)N1CCc3cc(OC)c(OC)cc3C1)[C@H]1C(=O)O[C@H](c3ccccc3)[C@H](c3ccccc3)N1[C@@H]2c1ccc(O)cc1" >= 0.02
Key: Fulfilled

Exercise: Assess whether reported composite Z-score for "COCCOC(=O)N1C(=O)[C@@]2(c3cc(C#CCC(C(=O)OC)C(=O)OC)ccc31)[C@H](C(N)=O)[C@H]1C(=O)O[C@H](c3ccccc3)[C@H](c3ccccc3)N1[C@@H]2c1ccc(OCCO)cc1" sits at 0.02 or higher.
Key: Not fulfilled

Exercise: Textbook exercise: given the entry "CC(C)=CCN(C(=O)C#Cc1ccccc1)[C@H](CO)c1ccccc1" , state whether its composite Z-score is greater than or equal to 0.02.
Key: Not fulfilled

Exercise: Confirm if composite Z-score reported for the compound CN1C=C(C(=O)OCCS(C)(=O)=O)C(C(=O)OCCS(C)(=O)=O)=CC(CCCO)=CC1c1ccc(CN2CCCC2)cc1 (configuration not stated) is 0.02 or above.
Key: Fulfilled

Exercise: Reported composite Z-score at or above 0.02? "CCCC=C(CCC)[C@@H](NC(=O)c1ccccc1)c1ccc(C(=O)OC)cc1"
Key: Not fulfilled

Exercise: Please check the record "CC(C)[C@@H](C(=O)O)n1cc(-c2ccccc2)nn1" and state if its composite Z-score is at or above 0.02.
Key: Fulfilled

Exercise: Please check the record CC(=O)n1cc(C(O)C2C=CC3C(=O)N(c4ccccc4)C(=O)C3N2Nc2ccccc2F)c2ccccc21 (configuration not stated) and state if its composite Z-score is at or above 0.02.
Key: Fulfilled

Exercise: Reported composite Z-score at or above 0.02? "CC(C)C(=C=CC[C@@H](O)c1ccc(OCCO)cc1)CCO"
Key: Not fulfilled

Exercise: Textbook exercise: given the entry "COC(=O)[C@@]1(Cc2ccc(F)cc2)[C@H]2c3cc(C(=O)N(C)C)n(CCN4CCOCC4)c3C[C@H]2CN1C(=O)c1ccccc1" , state whether its composite Z-score is greater than or equal to 0.02.
Key: Not fulfilled

Exercise: Check this compound for composite Z-score at or above 0.02: "C#CCN(C/C=C/c1ccccc1)[C@H](CO[Si](C)(C)C(C)(C)C)c1ccccc1"
Key: Not fulfilled

Exercise: Identify whether the reported composite Z-score of the following compound is 0.02 or greater: C[C@@H](OCc1ccccc1)C1NC(=O)[C@@]23C(=O)N[C@@H](Cc4ccccc4)C2[C@H](C)[C@@]2(C)O[C@H]2C3/C=C/C/C=C\CNC(=O)[C@H](Cc2ccccc2)NC1=O (some centres not stated)
Key: Fulfilled

Exercise: Given NC(=O)N1C(=O)C2C(C1=O)C1C=C(CCCO)C2C(c2ccc(CN3CCCC3)cc2)N1Cc1cccc(OC(F)(F)F)c1 (configuration not stated) , state whether its composite Z-score is at least 0.02.
Key: Fulfilled

Exercise: API: above_or_equal(metric=composite Z-score, cutoff=0.02) for item "COc1ccc([Si](C)(C)[C@H]2[C@H](CCO)O[C@@]3(C(=O)N(Cc4ccc(N5CCOC5=O)cc4)c4ccccc43)[C@@H]2C)cc1"
Key: Not fulfilled

Exercise: Is reported composite Z-score greater than or equal to 0.02 here: "COCCOC(=O)N1C(=O)[C@@]2(c3cc(C#CCNC(N)=O)ccc31)[C@H](C(=O)NC[C@H](O)c1ccccc1)[C@H]1C(=O)O[C@H](c3ccccc3)[C@H](c3ccccc3)N1[C@@H]2c1ccc(OCCO)cc1"
Key: Not fulfilled

Exercise: Check if composite Z-score >= 0.02 (inclusive). Item: "COC(=O)[C@@]1(Cc2ccc(F)cc2)[C@H]2c3cc(C(=O)N(C)C)n(CCO)c3C[C@H]2CN1C(=O)c1ccccc1"
Key: Not fulfilled

Exercise: Hi team, for COc1cc2c(cc1O)C(C1CC1)N(Cc1ccc([N+](=O)[O-])o1)CC2 (configuration not stated) , is the recorded composite Z-score at or above 0.02?
Key: Fulfilled

Exercise: Does the compound "COC(=O)c1c(CC[C@@H](CO)NC(=O)N[C@@H](Cc2ccccc2)Cn2cc(-c3cncn3C)nn2)oc(C(C)=O)c1C(=O)OC" have recorded composite Z-score that is 0.02 or more?
Key: Fulfilled

Exercise: # bool: composite Z-score of "COC(=O)[C@@]1(Cc2ccc(OC)cc2)[C@H]2c3cc(C(=O)N4CCCC4)n(CCc4ccc(OC)c(Br)c4)c3C[C@H]2CN1C(=O)c1ccccc1" >= 0.02
Key: Not fulfilled

Exercise: In plain terms: is recorded composite Z-score at least 0.02 for "COC(=O)[C@@]1(CCS(=O)(=O)c2ccccc2)N=C(c2ccc(OCCCO)cc2)O[C@H]1c1ccccc1N=[N+]=[N-]" ?
Key: Not fulfilled

Exercise: Confirm if composite Z-score reported for the compound "COc1ccccc1CN1C(=O)c2ccccc2[C@@H](C(=O)NCCCN(C)C)[C@@H]1c1ccc(CO)cc1" is 0.02 or above.
Key: Fulfilled

Exercise: Reported composite Z-score at or above 0.02? "O=C1O[C@@H](c2ccccc2)[C@@H](c2ccccc2)N2[C@@H](c3ccc(OCCO)cc3)[C@]3(C(=O)Nc4ccc(C#CCCO)cc43)[C@@H](C(=O)Nc3nc4ccccc4s3)[C@H]12"
Key: Fulfilled

Exercise: Record "COc1ccc([Si](C)(C)[C@@H]2[C@@H](CCO)O[C@]3(C(=O)N(Cc4ccccc4)c4ccc(N5C(=O)c6ccccc6Oc6ccccc65)cc43)[C@H]2C)cc1" ; criterion: composite Z-score no lower than 0.02. Met?
Key: Fulfilled

Exercise: Quick check, composite Z-score >= 0.02? "CCOC(=O)C[C@H]1[C@H](OC(=O)Cc2ccc3c(c2)OCO3)[C@@H](NC(=O)c2ccccc2)c2cc(OCCCO)ccc2N1C(=O)Cc1ccc(OC)cc1"
Key: Not fulfilled

Exercise: Answer whether composite Z-score of "COCC(=C=CC[C@@H](O)c1ccc(OCCO)cc1)C[C@@H](O)COCc1ccccc1" is greater than or equal to 0.02.
Key: Not fulfilled

Exercise: Entry "COc1ccc(C#Cc2ccc3c(c2)[C@]2(C(=O)N3)[C@H](c3ccc(OCCO)cc3)N3[C@H](c4ccccc4)[C@H](c4ccccc4)OC(=O)[C@H]3[C@@H]2C(=O)O)cc1" : is its composite Z-score no less than 0.02?
Key: Not fulfilled

Exercise: Please indicate if the recorded composite Z-score for "COCCOC(=O)N1C(=O)[C@@]2(c3cc(C#CCCO)ccc31)[C@H](C(=O)N1CCN(c3ncccn3)CC1)[C@H]1C(=O)O[C@H](c3ccccc3)[C@H](c3ccccc3)N1[C@@H]2c1ccc(O)cc1" meets or exceeds 0.02.
Key: Fulfilled

Exercise: hey, is composite Z-score for this one >= 0.02? "COc1ccc(CCNC(=O)[C@@H]2c3ccccc3C(=O)N(CC34CC5CC(CC(C5)C3)C4)[C@H]2c2ccc(CO)cc2)cc1"
Key: Not fulfilled

Value source: PubChem BioAssay
